Attribution: patent US9513294B2

TEST METHOD NOTES: Absorbance and fluorescence emission spectra (SpectraMax M2)
Assay type: physicochemical
EXPERIMENTAL CONDITIONS: MKAC compound library; fluorescence emission maximum
Experimental: BDC-8 (Blue): absorbance λmax=473 nm, emission λmax=585 nm; MK101-8 (Green): absorbance λmax=474 nm, emission λmax=563 nm; MKHA374-48 (Yellow): absorbance λmax=468 nm, λem=557 nm. The corresponding spectra of a reported BODIPY (BD-27; Red) are also included for comparison: absorbance λmax=551 nm, emission λmax=568 nm. […] ^1H-NMR, ^19F-NMR and ^13C-NMR spectra were recorded on Bruker ACF300 (300 MHz), DPX300 (300 MHz) and AMX500 (500 MHz) spectrometers. […]
MEASURE: λmax Em. (nm)

INSERT INTO results (compound, endpoint_result) VALUES
  ('CC(=O)Nc1ccc(C2=C3C=CC(NCc4ccccc4C)=[N+]3[B-](F)(F)n3c2ccc3-n2cc(C3CCCC3)nn2)cc1', 563),
  ('CC(=O)Nc1ccc(C2=C3C=CC(N4CCc5ccccc5C4)=[N+]3[B-](F)(F)n3c2ccc3-n2cc(CO)nn2)cc1', 582),
  ('CCCCCC(O)c1cn(-c2ccc3n2[B-](F)(F)[N+]2=C(NCc4ccccc4C)C=CC2=C3c2ccc(NC(C)=O)cc2)nn1 (stereo not shown)', 562),
  ('CCCc1cn(-c2ccc3n2[B-](F)(F)[N+]2=C(N(C)Cc4ccccc4)C=CC2=C3c2ccc(NC(C)=O)cc2)nn1', 575),
  ('CCCc1cn(-c2ccc3n2[B-](F)(F)[N+]2=C(NCc4ccccc4OCC)C=CC2=C3c2ccc(NC(C)=O)cc2)nn1', 562),
  ('CC(=O)Nc1ccc(C2=C3C=CC(N(C)Cc4ccccc4)=[N+]3[B-](F)(F)n3c2ccc3-n2cc(C3CC3)nn2)cc1', 582),
  ('CC(=O)Nc1ccc(C2=C3C=CC(NCc4ccccc4C)=[N+]3[B-](F)(F)n3c2ccc3-n2cc(CCc3ccccc3)nn2)cc1', 560),
  ('CC(=O)Nc1ccc(C2=C3C=CC(N4CC(C)OC(C)C4)=[N+]3[B-](F)(F)n3c2ccc3-n2cc(CC(C)C)nn2)cc1 (stereo not shown)', 586),
  ('COc1ccc(OC)c(CNC2=[N+]3C(=C(c4ccc(NC(C)=O)cc4)c4ccc(-n5cc(CC6CCCCC6)nn5)n4[B-]3(F)F)C=C2)c1', 564),
  ('CCOc1ccccc1CNC1=[N+]2C(=C(c3ccc(NC(C)=O)cc3)c3ccc(-n4cc(CN(C)Cc5ccccc5)nn4)n3[B-]2(F)F)C=C1', 560),
  ('CC(=O)Nc1ccc(C2=C3C=CC(NCc4cc(F)cc(F)c4)=[N+]3[B-](F)(F)n3c2ccc3-n2cc(CN(C)Cc3ccccc3)nn2)cc1', 561),
  ('CCCC(C)c1cn(-c2ccc3n2[B-](F)(F)[N+]2=C(NCc4ccccc4C)C=CC2=C3c2ccc(NC(C)=O)cc2)nn1 (stereo not shown)', 562),
  ('CCOc1ccccc1CNC1=[N+]2C(=C(c3ccc(NC(C)=O)cc3)c3ccc(-n4cc(C5CC5)nn4)n3[B-]2(F)F)C=C1', 565),
  ('CC(=O)Nc1ccc(C2=C3C=CC(N4CCCC4)=[N+]3[B-](F)(F)n3c2ccc3-n2cc(C3CCCC3)nn2)cc1', 574),
  ('CCCc1cn(-c2ccc3n2[B-](F)(F)[N+]2=C(NCc4cc(OC)ccc4OC)C=CC2=C3c2ccc(NC(C)=O)cc2)nn1', 561),
  ('CCOc1ccccc1CNC1=[N+]2C(=C(c3ccc(NC(C)=O)cc3)c3ccc(-n4cc(CO)nn4)n3[B-]2(F)F)C=C1', 558),
  ('CCCCCC(O)c1cn(-c2ccc3n2[B-](F)(F)[N+]2=C(N4CCCC4)C=CC2=C3c2ccc(NC(C)=O)cc2)nn1 (racemic)', 566),
  ('CC(=O)Nc1ccc(C2=C3C=CC(N(C)Cc4ccccc4)=[N+]3[B-](F)(F)n3c2ccc3-n2cc(CCc3ccccc3)nn2)cc1', 577),
  ('CC(=O)Nc1ccc(C2=C3C=CC(N4CCCC4)=[N+]3[B-](F)(F)n3c2ccc3-n2cc(C3CC3)nn2)cc1', 576),
  ('CC(=O)Nc1ccc(C2=C3C=CC(NCc4cc(F)cc(F)c4)=[N+]3[B-](F)(F)n3c2ccc3-n2cc(CCc3ccccc3)nn2)cc1', 562),
  ('CC(=O)Nc1ccc(C2=C3C=CC(N4CC(C)OC(C)C4)=[N+]3[B-](F)(F)n3c2ccc3-n2cc(CCc3ccccc3)nn2)cc1 (stereo not shown)', 579),
  ('CCCC(C)c1cn(-c2ccc3n2[B-](F)(F)[N+]2=C(N4CCCC4)C=CC2=C3c2ccc(NC(C)=O)cc2)nn1 (racemic)', 569),
  ('CC(=O)Nc1ccc(C2=C3C=CC(N4CC(C)OC(C)C4)=[N+]3[B-](F)(F)n3c2ccc3-n2cc(C3CC3)nn2)cc1 (stereo not shown)', 585),
  ('CC(=O)Nc1ccc(C2=C3C=CC(N4CC(C)OC(C)C4)=[N+]3[B-](F)(F)n3c2ccc3-n2cc(CN(C)Cc3ccccc3)nn2)cc1 (stereo not shown)', 583),
  ('CC(=O)Nc1ccc(C2=C3C=CC(NCc4ccccc4C)=[N+]3[B-](F)(F)n3c2ccc3-n2cc(C3CC3)nn2)cc1', 563);
